# TARGET SYSTEM: FGFR1 kinase domain recombinant protein (Homo sapiens)
# Sequence (P11362 478-767 limits assumed): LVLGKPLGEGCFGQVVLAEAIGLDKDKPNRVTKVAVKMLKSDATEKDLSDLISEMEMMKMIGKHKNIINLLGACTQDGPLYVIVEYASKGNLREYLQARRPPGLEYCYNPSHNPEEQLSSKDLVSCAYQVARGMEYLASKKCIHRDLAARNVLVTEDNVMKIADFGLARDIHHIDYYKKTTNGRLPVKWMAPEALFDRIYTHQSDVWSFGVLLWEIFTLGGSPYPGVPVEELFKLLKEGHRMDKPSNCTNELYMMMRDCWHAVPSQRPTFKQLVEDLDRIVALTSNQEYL
# PROTOCOL DETAILS: FGFR1 enzyme activity at molecular level (ELISA, Poly(Glu,Tyr) 4:1 substrate)
Each entry below carries its reported IC50.

COc1cc(C)cc2cc(-c3cn(C4CCN(C(=O)/C=C/CN5CCC(O)CC5)C4)c4ncnc(N)c34)sc12 (stereo not drawn) :: < 10 nM
C=C(CN1CCOCC1)C(=O)N1CC[C@H](n2nc(-c3cc4cc(C)cc(OC)c4s3)c3c(N)ncnc32)C1 :: < 10 nM
C=CC(=O)N1CCC(n2cc(-c3ccc4c(N)n[nH]c4c3)c3c(N)ncnc32)C1 (stereo not drawn) :: > 100 nM

Q: Given C=CC(=O)N1CC[C@H](n2cc(-c3cnc4ccccc4c3)c3c(N)ncnc32)C1 [Control compound, reference compound] , respond with its IC50.
Ans: > 100 nM

Q: Given C=C(CN1CCOCC1)C(=O)N1CC(n2cc(-c3cc4cc(C)cc(OC)c4s3)c3c(N)ncnc32)C1 , respond with its IC50.
Ans: < 10 nM

Q: Given C=CC(=O)N1CC(n2cc(-c3cc4cc(C)cc(OC)c4s3)c3c(N)ncnc32)CC1CO (stereo not drawn) , respond with its IC50.
Ans: < 10 nM

Q: Given COc1cc(C)cc2cc(-c3cn(C4CCN(C(=O)OC(C)(C)C)C4)c4ncnc(N)c34)sc12 (stereo not drawn) , respond with its IC50.
Ans: 10 to 100 nM

Q: Given C=CC(=O)N1CC[C@H](n2cc(-c3cc4cc(Br)cc(OC)c4s3)c3c(N)ncnc32)C1 , respond with its IC50.
Ans: < 10 nM

Q: Given C=C(CN(C)C)C(=O)N1CC(n2cc(-c3cc4cc(C)cc(OC)c4s3)c3c(N)ncnc32)C1 , respond with its IC50.
Ans: < 10 nM

Q: Given C=C(CN1CCN(C)CC1)C(=O)N1CC[C@H](n2cc(-c3cc4cc(C)cc(OC)c4s3)c3c(N)ncnc32)C1 , respond with its IC50.
Ans: 10 to 100 nM

Q: Given C#CC(=O)N1CC(n2nc(-c3cc4cc(C)cc(OC)c4s3)c3c(N)ncnc32)C1 , respond with its IC50.
Ans: < 10 nM

Q: Given C=C(CN1CCCCC1)C(=O)N1CC[C@H](n2cc(-c3cc4cc(C)cc(OC)c4s3)c3c(N)ncnc32)C1 , respond with its IC50.
Ans: 10 to 100 nM

Q: Given C=CC(=O)N1CC[C@H](n2cc(-c3cc4cc(C)cc(OC)c4s3)c3c(N)ncnc32)C1 , respond with its IC50.
Ans: < 10 nM

Q: Given C=CC(=O)Nc1cccc(Cn2nc(-c3cc4cc(C)cc(OC)c4s3)c3c(N)ncnc32)c1 , respond with its IC50.
Ans: < 10 nM

Q: Given C=CC(=O)N1CCC(n2cc(-c3ccncc3)c3c(N)ncnc32)C1 (stereo not drawn) , respond with its IC50.
Ans: > 100 nM

* * *

# TARGET SYSTEM: FGFR4 kinase domain recombinant protein (Homo sapiens, UniProt P22455)
# Sequence (P22455 467-755 limits assumed): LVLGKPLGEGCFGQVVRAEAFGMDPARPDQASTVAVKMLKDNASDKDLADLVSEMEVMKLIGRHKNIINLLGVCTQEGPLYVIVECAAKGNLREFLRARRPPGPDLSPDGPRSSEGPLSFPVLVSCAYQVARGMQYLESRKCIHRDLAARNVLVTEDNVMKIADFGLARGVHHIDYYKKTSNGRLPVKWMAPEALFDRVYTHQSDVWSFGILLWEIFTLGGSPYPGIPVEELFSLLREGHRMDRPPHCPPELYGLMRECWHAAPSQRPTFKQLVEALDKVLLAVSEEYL
# PROTOCOL DETAILS: FGFR4 enzyme activity at molecular level (ELISA, Poly(Glu,Tyr) 4:1 substrate)
RECORDED ENDPOINT: IC50

Some entries whose results are on file:
COc1cc(C)cc2cc(-c3cn(C4CCN(C(=O)/C=C/CN5CCC(F)C5)C4)c4ncnc(N)c34)sc12 (stereo not shown) :: 10 to 100 nM
C=CC(=O)N1CC(n2nc(-c3cc4cc(C)cc(OC)c4s3)c3c(N)ncnc32)C1 :: < 10 nM
C=C(CN1CCOCC1)C(=O)N1CC(n2nc(-c3cc4cc(C)cc(OC)c4s3)c3c(N)ncnc32)C1 :: < 10 nM

Q: Given COCCN(C)C/C=C/C(=O)N1CCC(n2cc(-c3cc4cc(C)cc(OC)c4s3)c3c(N)ncnc32)C1 (stereo not shown) , respond with its IC50.
Ans: 10 to 100 nM

* * *

# TARGET SYSTEM: FGFR1 kinase domain recombinant protein (Homo sapiens)
# PROTOCOL DETAILS: FGFR1 enzyme activity at molecular level (ELISA, Poly(Glu,Tyr) 4:1 substrate)
Each entry below carries its reported IC50.

C=CC(=O)NCCn1nc(-c2cc3cc(C)cc(OC)c3s2)c2c(N)ncnc21 [NO. 50] :: > 100 nM

Q: Given C=CC(=O)N1CCC(n2cc(-c3cc4cc(C)cc(OC)c4s3)c3c(N(C)C)ncnc32)C1 (stereo not shown) [NO. 63] , respond with its IC50.
Ans: > 100 nM

Q: Given COc1cc(C)cc2cc(-c3cn(C4CN(C(=O)/C=C/CN(C)C)C4)c4ncnc(N)c34)sc12 [NO. 19] , respond with its IC50.
Ans: < 10 nM

Q: Given COc1cc(C)cc2cc(-c3cn(C4CCN(C(=O)/C=C/CN5CCCC5)C4)c4ncnc(N)c34)sc12 (stereo not shown) [NO. 7] , respond with its IC50.
Ans: < 10 nM

Q: Given C=CC(=O)N1CC[C@@H](n2cc(-c3cc4cc(C)cc(OC)c4s3)c3c(N)ncnc32)C1 [NO. 11] , respond with its IC50.
Ans: < 10 nM

Q: Given COc1cc(C)cc2cc(-c3nn([C@H]4CCN(C(=O)/C=C/CN(C)C)C4)c4ncnc(N)c34)sc12 [NO. 38] , respond with its IC50.
Ans: < 10 nM

Q: Given COc1cc(C)cc2cc(-c3cn(C4CCNC4)c4ncnc(N)c34)sc12 (stereo not shown) [NO. 9] , respond with its IC50.
Ans: 10 to 100 nM

* * *

# TARGET SYSTEM: FGFR4 kinase domain recombinant protein (Homo sapiens, UniProt P22455)
# PROTOCOL DETAILS: FGFR4 enzyme activity at molecular level (ELISA, Poly(Glu,Tyr) 4:1 substrate)
pIC50: −log10 of the molar value.
Each entry below carries its reported pIC50.

COc1cc(C)cc2cc(-c3cn(CCN4CCOCC4)c4ncnc(N)c34)sc12 :: < 7.00

Q: Given C=CC(=O)NCCn1nc(-c2cc3cc(C)cc(OC)c3s2)c2c(N)ncnc21 , respond with its pIC50.
Ans: < 7.00

Q: Given C=CC(=O)N1CCC(n2nc(-c3cc4cc(C)cc(OC)c4s3)c3c(N)ncnc32)C1 (centres unmarked) , respond with its pIC50.
Ans: 7.00 to 8.00

Q: Given C=C(CN1CCN(C)CC1)C(=O)N1CC[C@H](n2cc(-c3cc4cc(C)cc(OC)c4s3)c3c(N)ncnc32)C1 , respond with its pIC50.
Ans: > 8.00

Q: Given C=CC(=O)N1CC[C@H](n2cc(-c3cnc4ccccc4c3)c3c(N)ncnc32)C1 [Control compound, reference compound] , respond with its pIC50.
Ans: 7.00 to 8.00

Taken from patent US20190367520A1.
